The compounds below have reported ΔTm for Serine/threonine-protein kinase Nek6 (Homo sapiens) (UniProt Q9HC98).
The reply should read as a number followed by its unit.

Below, each entry is followed by its recorded ΔTm result.
Oc1cccc(-c2nc(N3CCOCC3)c3oc4ncccc4c3n2)c1	0.4 °C
COc1cc(OC)c(/C=C2\C(=O)Nc3ccccc32)c(OC)c1	0 °C
CCOc1ccc(/C=C2/SC(=O)N(CCN)C2=O)cc1	-1.7 °C
O=C1Nc2ccccc2/C1=C/c1cnc[nH]1	0 °C

q: Notebook: pull reported ΔTm for Serine/threonine-protein kinase Nek6 (Homo sapiens) (UniProt Q9HC98), entry `CCCCc1c(-c2ccc(O)cc2)[nH]c2nccnc12`
a: 2.9 °C

q: Please state recorded ΔTm (tested on Serine/threonine-protein kinase Nek6 (Homo sapiens) (UniProt Q9HC98)) of `c1ccc(-c2n[nH]c3c2oc2ccccc23)cc1`
Sequence (Q9HC98 whole entry): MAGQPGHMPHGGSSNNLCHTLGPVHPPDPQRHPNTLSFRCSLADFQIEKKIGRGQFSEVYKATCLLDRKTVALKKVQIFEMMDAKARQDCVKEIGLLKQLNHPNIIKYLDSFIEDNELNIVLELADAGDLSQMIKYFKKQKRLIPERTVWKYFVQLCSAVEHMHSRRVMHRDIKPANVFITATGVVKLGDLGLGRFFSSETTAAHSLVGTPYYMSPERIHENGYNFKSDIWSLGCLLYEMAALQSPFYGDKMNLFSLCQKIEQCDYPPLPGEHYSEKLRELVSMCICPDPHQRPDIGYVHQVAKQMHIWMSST
a: 0 °C

q: What value of ΔTm on Serine/threonine-protein kinase Nek6 (Homo sapiens) (UniProt Q9HC98) does `CC(C)n1cnc2c(NCc3ccccc3)nc(NCCCO)nc21` have?
a: 0.4 °C

q: Write down the reported ΔTm of `O=C(Nc1cccc(Nc2cc(Nc3cccc(C(F)(F)F)c3)ncn2)c1)C1CC1` , test system: Serine/threonine-protein kinase Nek6 (Homo sapiens) (UniProt Q9HC98).
a: -0.4 °C

q: So what ΔTm did `CN(C)c1ncnc2nc[nH]c12` get with Serine/threonine-protein kinase Nek6 (Homo sapiens) (UniProt Q9HC98)?
a: 0 °C

q: Recorded ΔTm for `CC(C)[C@H](CO)Nc1nc(Nc2cc(N)cc(Cl)c2)c2ncn(C(C)C)c2n1` with Serine/threonine-protein kinase Nek6 (Homo sapiens) (UniProt Q9HC98), please?
a: 0 °C

q: Provide value of ΔTm for this record tested with Serine/threonine-protein kinase Nek6 (Homo sapiens) (UniProt Q9HC98): `CN1CCC(Nc2ncc3ncnc(Nc4ccc(F)c(Cl)c4)c3n2)CC1`
a: 1.5 °C

q: Serine/threonine-protein kinase Nek6 (Homo sapiens) (UniProt Q9HC98) / ΔTm / Cl.Cn1cc(C2=C(c3ccc4cc5n(c4c3)CCC(CN)C5)C(=O)NC2=O)c2ccccc21 (configuration not stated) : value?
a: -0.7 °C

q: Find ΔTm (Serine/threonine-protein kinase Nek6 (Homo sapiens) (UniProt Q9HC98)) for the entry `NC1=NC(=O)/C(=C2\CCNC(=O)c3[nH]c(Br)cc32)N1`
a: 0 °C

q: What value of ΔTm on Serine/threonine-protein kinase Nek6 (Homo sapiens) (UniProt Q9HC98) does `CCN(CC)CCNC(=O)c1c(C)[nH]c(/C=C2\C(=O)Nc3ccc(Cl)cc32)c1C` have?
a: -0.8 °C
